# ASSAY_NOTES: Cytotoxicity against human MRC5 cells assessed as reduction in nuclei count measured after 6 days for Hoechst 33342 staining based microscopic analysis
# Type: cell-based
# CONDITION_PARAMETERS: time 6 day
PARAMETER: CC50 at 144 h

Supply measured CC50 at 144 h of O=[N+]([O-])c1cc(-c2c3nc(c4ccc([nH]4)c(-c4cc([N+](=O)[O-])c(Br)cc4F)c4ccc([nH]4)c(-c4cc([N+](=O)[O-])c(Br)cc4F)c4ccc2[nH]4)C=C3)c(F)cc1Br in your reply.
> 50 µM

Name the recorded CC50 at 144 h of the item O=[N+]([O-])c1cccc(-c2c3nc(c4ccc([nH]4)c(-c4cccc([N+](=O)[O-])c4)c4ccc([nH]4)c(-c4ccc(F)c([N+](=O)[O-])c4)c4ccc2[nH]4)C=C3)c1 in your answer.
> 50 µM

Tell me measured CC50 at 144 h for O=[N+]([O-])c1cccc(-c2c3nc(c4ccc([nH]4)c(-c4cccc([N+](=O)[O-])c4F)c4ccc([nH]4)c(-c4cccc([N+](=O)[O-])c4F)c4ccc2[nH]4)C=C3)c1F please.
> 50 µM

Give the value of CC50 at 144 h reported for the following: O=[N+]([O-])c1cc(F)cc(-c2c3nc(c4ccc([nH]4)c(-c4cc(F)cc([N+](=O)[O-])c4)c4ccc([nH]4)c(-c4cc(F)cc([N+](=O)[O-])c4)c4ccc2[nH]4)C=C3)c1
> 50 µM

// Input: O=[N+]([O-])c1ccc(F)c(-c2c3nc(c4ccc([nH]4)c(-c4cc([N+](=O)[O-])ccc4F)c4ccc([nH]4)c(-c4cc([N+](=O)[O-])ccc4F)c4ccc2[nH]4)C=C3)c1 . Output its CC50 at 144 h only.
3.7 µM

Identify the reported CC50 at 144 h for the following entry. O=[N+]([O-])c1ccc(F)c(-c2c3nc(c4ccc([nH]4)c(-c4c(F)ccc([N+](=O)[O-])c4F)c4ccc([nH]4)c(-c4c(F)ccc([N+](=O)[O-])c4F)c4ccc2[nH]4)C=C3)c1F
8.77 µM

Kindly indicate its recorded CC50 at 144 h. Item: O=[N+]([O-])c1cc(-c2c3nc(c4ccc([nH]4)c(-c4ccc(F)c([N+](=O)[O-])c4)c4ccc([nH]4)c(-c4ccc(F)c([N+](=O)[O-])c4)c4ccc2[nH]4)C=C3)ccc1F
> 50 µM

###

# ASSAY_NOTES: Cytotoxicity against human ARPE-19 cells assessed as reduction in nuclei count measured after 10 days for Hoechst 33342 staining based microscopic analysis
# Assay type: cell-based
# CONDITION_PARAMETERS: time 10 day
PARAMETER: CC50 at 240 h

Kindly indicate its recorded CC50 at 240 h. Item: O=[N+]([O-])c1ccc(F)cc1-c1c2nc(c3ccc([nH]3)c(-c3cc(F)ccc3[N+](=O)[O-])c3ccc([nH]3)c(-c3cc(F)ccc3[N+](=O)[O-])c3ccc1[nH]3)C=C2
> 50 µM

Annotate the molecule O=[N+]([O-])c1ccc(F)c(-c2c3nc(c4ccc([nH]4)c(-c4c(F)ccc([N+](=O)[O-])c4F)c4ccc([nH]4)c(-c4c(F)ccc([N+](=O)[O-])c4F)c4ccc2[nH]4)C=C3)c1F with its measured CC50 at 240 h.
9.8 µM

Answer with reported CC50 at 240 h of O=[N+]([O-])c1cc(-c2c3nc(c4ccc([nH]4)c(-c4cc([N+](=O)[O-])c(Br)cc4F)c4ccc([nH]4)c(-c4cc([N+](=O)[O-])c(Br)cc4F)c4ccc2[nH]4)C=C3)c(F)cc1Br
> 50 µM

###

# ASSAY_NOTES: Selectivity index, ratio of CC50 for human ARPE-19 cells assessed as reduction in nuclei count measured after […] 33342 staining based microscopic analysis to EC50 Human cytomegalovirus infected in ARPE-19 cells measured after 10 days by microscopic analysis
# Format: toxicity, cell-based
# CONDITION_PARAMETERS: read-out: Ratio CC50/EC50
PARAMETER: selectivity ratio

Specify measured selectivity ratio for O=[N+]([O-])c1cc(F)ccc1-c1c2nc(c3ccc([nH]3)c(-c3ccc(F)cc3[N+](=O)[O-])c3ccc([nH]3)c(-c3ccc(F)cc3[N+](=O)[O-])c3ccc1[nH]3)C=C2 .
> 11

Provide only the value of recorded selectivity ratio for O=[N+]([O-])c1ccc(F)c(-c2c3nc(c4ccc([nH]4)c(-c4c(F)ccc([N+](=O)[O-])c4F)c4ccc([nH]4)c(-c4c(F)ccc([N+](=O)[O-])c4F)c4ccc2[nH]4)C=C3)c1F
31.6

Given O=[N+]([O-])c1ccc(F)c(-c2c3nc(c4ccc([nH]4)c(-c4cc([N+](=O)[O-])ccc4F)c4ccc([nH]4)c(-c4cc([N+](=O)[O-])ccc4F)c4ccc2[nH]4)C=C3)c1 , respond with its selectivity ratio.
39

Quick one: give measured selectivity ratio for O=[N+]([O-])c1cccc(-c2c3nc(c4ccc([nH]4)c(-c4cccc([N+](=O)[O-])c4)c4ccc([nH]4)c(-c4ccc(F)c([N+](=O)[O-])c4)c4ccc2[nH]4)C=C3)c1
> 10

Write down selectivity ratio measured for item O=[N+]([O-])c1cc(F)cc(-c2c3nc(c4ccc([nH]4)c(-c4cc(F)cc([N+](=O)[O-])c4)c4ccc([nH]4)c(-c4cc(F)ccc4[N+](=O)[O-])c4ccc2[nH]4)C=C3)c1
51

Output measured selectivity ratio for this item: O=[N+]([O-])c1cc(F)cc(-c2c3nc(c4ccc([nH]4)c(-c4cc(F)cc([N+](=O)[O-])c4)c4ccc([nH]4)c(-c4cc(F)cc([N+](=O)[O-])c4)c4ccc2[nH]4)C=C3)c1
> 26

Give selectivity ratio for the following compound: O=[N+]([O-])c1ccc(F)cc1-c1c2nc(c3ccc([nH]3)c(-c3cc(F)ccc3[N+](=O)[O-])c3ccc([nH]3)c(-c3cc(F)ccc3[N+](=O)[O-])c3ccc1[nH]3)C=C2
> 10

Quick one: give measured selectivity ratio for O=[N+]([O-])c1cccc(-c2c3nc(c4ccc([nH]4)c(-c4cccc([N+](=O)[O-])c4F)c4ccc([nH]4)c(-c4cccc([N+](=O)[O-])c4F)c4ccc2[nH]4)C=C3)c1F
> 82

###

# ASSAY_NOTES: Selectivity index, ratio of CC50 for human ARPE-19 cells assessed as reduction in nuclei count measured after […] 33342 staining based microscopic analysis to EC50 Human cytomegalovirus infected in ARPE-19 cells measured after 10 days by microscopic analysis
# Type: toxicity, cell-based
# CONDITION_PARAMETERS: read-out: Ratio CC50/EC50
Would you mind telling me the reported selectivity ratio of each entry?

For the molecule O=[N+]([O-])c1cc(F)cc(-c2c3ccc([nH]3)c(-c3cc(F)ccc3[N+](=O)[O-])c3nc(c4ccc([nH]4)c(-c4cc(F)ccc4[N+](=O)[O-])c4ccc2[nH]4)C=C3)c1 , report selectivity ratio.
> 227

Please report selectivity ratio for the following molecule: O=[N+]([O-])c1cc(C(F)(F)F)ccc1-c1c2nc(c3ccc([nH]3)c(-c3ccc(C(F)(F)F)cc3[N+](=O)[O-])c3ccc([nH]3)c(-c3ccc(C(F)(F)F)cc3[N+](=O)[O-])c3ccc1[nH]3)C=C2
> 10

Note selectivity ratio for the molecule shown: O=[N+]([O-])c1ccc(-c2c3nc(c4ccc([nH]4)c(-c4ccc([N+](=O)[O-])cc4F)c4ccc([nH]4)c(-c4ccc([N+](=O)[O-])cc4F)c4ccc2[nH]4)C=C3)c(F)c1
21.2

###

# ASSAY_NOTES: Cytotoxicity against human ARPE-19 cells assessed as reduction in nuclei count measured after 10 days for Hoechst 33342 staining based microscopic analysis
# Assay type: cell-based
# CONDITION_PARAMETERS: time 10 day
For each entry below, report its CC50 at 240 h value.

Identify measured CC50 at 240 h associated with O=[N+]([O-])c1ccc(-c2c3nc(c4ccc([nH]4)c(-c4ccc([N+](=O)[O-])c(F)c4)c4ccc([nH]4)c(-c4ccc([N+](=O)[O-])c(F)c4)c4ccc2[nH]4)C=C3)cc1F
> 50 µM

Please list CC50 at 240 h recorded for the molecule O=[N+]([O-])c1cc(F)cc(-c2c3nc(c4ccc([nH]4)c(-c4cc(F)cc([N+](=O)[O-])c4)c4ccc([nH]4)c(-c4cc(F)ccc4[N+](=O)[O-])c4ccc2[nH]4)C=C3)c1
16.5 µM

Name the recorded CC50 at 240 h of the item CN(C)c1ccc(-c2c3nc(c4ccc([nH]4)c(-c4ccc(N(C)C)cc4[N+](=O)[O-])c4ccc([nH]4)c(-c4ccc(N(C)C)cc4[N+](=O)[O-])c4ccc2[nH]4)C=C3)c([N+](=O)[O-])c1 in your answer.
> 50 µM

Output measured CC50 at 240 h for this item: O=[N+]([O-])c1cccc(-c2c3nc(c4ccc([nH]4)c(-c4cccc([N+](=O)[O-])c4F)c4ccc([nH]4)c(-c4cccc([N+](=O)[O-])c4F)c4ccc2[nH]4)C=C3)c1F
> 50 µM
